Provenance of the data: the supplement of paper PMC10307832

relative viability for assorted compounds
Tested on: PC-3 [JPC-3]
EXPERIMENTAL_PROTOCOL: relative viability (nuclei count vs DMSO), 5 days (fraction); higher = more cells survive
CONDITION_LABEL: first compound 0.03162 µM
READOUT_LABEL: relative viability

* NC(=O)Nc1cc(-c2cccc(F)c2)sc1C(=O)N[C@H]1CCCNC1 [AZD7762] + CC(=O)Nc1cccc(-n2c(=O)n(C3CC3)c(=O)c3c(Nc4ccc(I)cc4F)n(C)c(=O)c(C)c32)c1 [Trametinib] (partner 0.02 µM) | 0.722
* NC(=O)Nc1cc(-c2cccc(F)c2)sc1C(=O)N[C@H]1CCCNC1 [AZD7762] + C[C@]1(O)C[C@@H](c2nc(-c3ccc4ccc(-c5ccccc5)nc4c3)c3c(N)nccn32)C1 [Linsitinib] (partner 1 µM) | 0.966

###

Test system: NCI-H650
EXPERIMENTAL_PROTOCOL: relative viability (nuclei count vs DMSO), 5 days (fraction); higher = more cells survive
CONDITION_LABEL: first compound 0.03162 µM
Entries whose relative viability is below 1 take 1; entries at or above 1 take -1.

• NC(=O)Nc1cc(-c2cccc(F)c2)sc1C(=O)N[C@H]1CCCNC1 [AZD7762] + CS(=O)(=O)CCNCc1ccc(-c2ccc3ncnc(Nc4ccc(OCc5cccc(F)c5)c(Cl)c4)c3c2)o1 [Lapatinib] (partner 2 µM) = -1
• NC(=O)Nc1cc(-c2cccc(F)c2)sc1C(=O)N[C@H]1CCCNC1 [AZD7762] + Cc1nc(NC(=O)N2CCC[C@H]2C(N)=O)sc1-c1ccnc(C(C)(C)C(F)(F)F)c1 [Alpelisib] (partner 2 µM) = -1
• NC(=O)Nc1cc(-c2cccc(F)c2)sc1C(=O)N[C@H]1CCCNC1 [AZD7762] + CC(=O)c1c(C)c2cnc(Nc3ccc(N4CCNCC4)cn3)nc2n(C2CCCC2)c1=O [Palbociclib] (partner 0.5 µM) = 1
• NC(=O)Nc1cc(-c2cccc(F)c2)sc1C(=O)N[C@H]1CCCNC1 [AZD7762] + CC(C)C[C@H](NC(=O)[C@H](Cc1ccccc1)NC(=O)c1cnccn1)B(O)O [Bortezomib] (partner 0.002 µM) = 1

###

System: NCI-H1944
EXPERIMENTAL_PROTOCOL: relative viability (nuclei count vs DMSO), 5 days (fraction); higher = more cells survive
CONDITION_LABEL: first compound 1 µM
Entries whose relative viability is below 0.7 take TRUE; entries at or above 0.7 take FALSE.

- NC(=O)Nc1cc(-c2cccc(F)c2)sc1C(=O)N[C@H]1CCCNC1 [AZD7762] + O=C(CCCCCCC(=O)Nc1ccccc1)NO [Vorinostat] (partner 1 µM): TRUE
- NC(=O)Nc1cc(-c2cccc(F)c2)sc1C(=O)N[C@H]1CCCNC1 [AZD7762] + O=C(c1cc(Cc2n[nH]c(=O)c3ccccc23)ccc1F)N1CCN(C(=O)C2CC2)CC1 [Olaparib] (partner 8 µM): TRUE
- NC(=O)Nc1cc(-c2cccc(F)c2)sc1C(=O)N[C@H]1CCCNC1 [AZD7762] + COc1cccc2cc(-c3nc([C@H]4CC[C@H](C(=O)O)CC4)n4ncnc(N)c34)[nH]c12 [OSI-027] (partner 0.5 µM): TRUE
- NC(=O)Nc1cc(-c2cccc(F)c2)sc1C(=O)N[C@H]1CCCNC1 [AZD7762] + CC1(C)CCC(c2ccc(Cl)cc2)=C(CN2CCN(c3ccc(C(=O)NS(=O)(=O)c4ccc(N[C@H](CCN5CCOCC5)CSc5ccccc5)c(S(=O)(=O)C(F)(F)F)c4)cc3)CC2)C1 [Navitoclax] (partner 0.5 µM): FALSE
- NC(=O)Nc1cc(-c2cccc(F)c2)sc1C(=O)N[C@H]1CCCNC1 [AZD7762] + CC(=O)c1c(C)c2cnc(Nc3ccc(N4CCNCC4)cn3)nc2n(C2CCCC2)c1=O [Palbociclib] (partner 0.5 µM): TRUE
